Test system: Escherichia coli TOP10
experiment-notes: shrunken log2 fold change of peptide-encoding DNA abundance (4.5 h post-induction vs induction); higher = less antimicrobial activity (less host growth inhibition)
condition-details: time post-induction: 4.5 h; library: site-saturation at positions 5, 18, 19, 20
# class assignment by measured shrunken log2 fold change: band A: < -0.08; band B: ≥ -0.08 and < 0.09; band C: ≥ 0.09

Hey, which category is RRIRRRPPRLPRPRPRPREEPRP in, do you know?
band C

Into which category would you place RRIRGRPPRLPRPRPRPNIAPRP ?
band C

For this sequence, which bin applies? RRIRIRPPRLPRPRPRPNEIPRP
band A

Pick a category. Item: RRIRPRPPRLPRPRPRPKYCPRP
band A

Category lookup for the sequence RRIRRRPPRLPRPRPRPSPGPRP
band C

Quick check: band for RRIRARPPRLPRPRPRPEEYPRP
band A

Category of RRIRMRPPRLPRPRPRPGGAPRP :
band C

Determine which band this sequence sits in: RRIRRRPPRLPRPRPRPAGRPRP
band C

Which class is correct for the following sequence? RRIRYRPPRLPRPRPRPMITPRP
band A

Determine which band this sequence sits in: RRIRYRPPRLPRPRPRPEMKPRP
band C

Band for the recorded shrunken log2 fold change of RRIRMRPPRLPRPRPRPDHNPRP ?
band B

// return the class label for RRIRVRPPRLPRPRPRPIGDPRP
band B

Consider RRIRRRPPRLPRPRPRPSLMPRP . To which shrunken log2 fold change class does it belong?
band B

Using the reported shrunken log2 fold change, which band applies to RRIRCRPPRLPRPRPRPQSKPRP ?
band A

For RRIRVRPPRLPRPRPRPELLPRP , which shrunken log2 fold change bin applies?
band B

Consider RRIRVRPPRLPRPRPRPTRQPRP . To which shrunken log2 fold change class does it belong?
band B

Categorize the following entry: RRIRNRPPRLPRPRPRPLNTPRP
band A

For this sequence, which bin applies? RRIRWRPPRLPRPRPRPPYEPRP
band A

Place this sequence in its band: RRIRGRPPRLPRPRPRPYMRPRP
band B

Could you tell me which band RRIRKRPPRLPRPRPRPTLWPRP belongs to?
band C

Sort RRIRPRPPRLPRPRPRPIAHPRP into one of the categories.
band C

For this sequence, which bin applies? RRIRYRPPRLPRPRPRPHKNPRP
band A

Please indicate the class for RRIRFRPPRLPRPRPRPLGEPRP based on its shrunken log2 fold change.
band B

Form: Item = RRIRHRPPRLPRPRPRPSLTPRP ; Class = ?
band B

Record RRIRDRPPRLPRPRPRPYCSPRP — which class?
band A

Band for the recorded shrunken log2 fold change of RRIRSRPPRLPRPRPRPQKMPRP ?
band A

Pick a category. Item: RRIRKRPPRLPRPRPRPVEVPRP
band B

Which shrunken log2 fold change category applies to RRIRVRPPRLPRPRPRPQGAPRP here?
band C

Each sequence maps to one class by shrunken log2 fold change. Which class for RRIRMRPPRLPRPRPRPDFCPRP ?
band B

Place this sequence in its band: RRIRFRPPRLPRPRPRPPAPPRP
band C

For the record RRIRPRPPRLPRPRPRPCCGPRP , report the class its shrunken log2 fold change corresponds to.
band B

----------
Test system: Escherichia coli TOP10;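 further: peptides expressed intracellularly from a pBAD plasmid library in pooled LB shake-flask culture, induced with 0.3% L-arabinose, DNA abundance read by NGS, three biological replicates, DESeq2 with apeglm shrinkage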
experiment-notes: shrunken log2 fold change of peptide-encoding DNA abundance (4.5 h post-induction vs induction); higher = less antimicrobial activity (less host growth inhibition)
condition-details: time post-induction: 4.5 h; library: site-saturation at positions 5, 18, 19, 20
Output yes for shrunken log2 fold change not less than -0.01; output no otherwise.

Is shrunken log2 fold change for RRIRERPPRLPRPRPRPDHMPRP at or above -0.01?
no

Would you say RRIRCRPPRLPRPRPRPFKAPRP shows shrunken log2 fold change at minimum -0.01?
no

Does RRIRFRPPRLPRPRPRPQFYPRP have a reported shrunken log2 fold change of at least -0.01?
no

Hi, just wondering whether RRIRWRPPRLPRPRPRPCWSPRP shows shrunken log2 fold change of -0.01 or higher.
no

Can RRIRIRPPRLPRPRPRPFFQPRP be said to have shrunken log2 fold change at or above -0.01?
no

Evaluate RRIRMRPPRLPRPRPRPSMFPRP : shrunken log2 fold change at minimum -0.01?
no

Could you verify whether the entry RRIRVRPPRLPRPRPRPFQKPRP shows shrunken log2 fold change of no less than -0.01?
yes

Hello, I need to know if RRIRFRPPRLPRPRPRPGILPRP has measured shrunken log2 fold change not below -0.01. Thanks!
no

Can RRIRYRPPRLPRPRPRPPCPPRP be said to have shrunken log2 fold change at or above -0.01?
no

Could you verify whether the entry RRIRWRPPRLPRPRPRPFPQPRP shows shrunken log2 fold change of no less than -0.01?
yes

Is it the case that RRIRIRPPRLPRPRPRPSAQPRP has shrunken log2 fold change reaching or exceeding -0.01?
no

hey, is shrunken log2 fold change for this one >= -0.01? RRIRSRPPRLPRPRPRPYEAPRP
no

Exam item: decide whether the reported shrunken log2 fold change for RRIRGRPPRLPRPRPRPVFMPRP is at least -0.01.
yes

Textbook exercise: given the entry RRIRTRPPRLPRPRPRPHIEPRP , state whether its shrunken log2 fold change is greater than or equal to -0.01.
no

Entry RRIRKRPPRLPRPRPRPGGTPRP : is its shrunken log2 fold change no less than -0.01?
yes

shrunken log2 fold change >= -0.01 for RRIRWRPPRLPRPRPRPKEQPRP ?
yes

Decide: is the reported value of shrunken log2 fold change for RRIRTRPPRLPRPRPRPDASPRP equal to or greater than -0.01?
yes

State whether the measured shrunken log2 fold change reaches -0.01, counting equality as reaching it, for RRIRFRPPRLPRPRPRPPILPRP
no

Kindly determine if shrunken log2 fold change recorded for RRIRNRPPRLPRPRPRPTGYPRP is above or exactly -0.01.
no

// inclusive: shrunken log2 fold change at least -0.01? input: RRIRRRPPRLPRPRPRPADPPRP
yes

Say whether RRIRKRPPRLPRPRPRPHQKPRP shows shrunken log2 fold change of -0.01 or more.
no

Decide: shrunken log2 fold change of RRIRERPPRLPRPRPRPRMMPRP >= -0.01?
no

Identify whether the reported shrunken log2 fold change of the following sequence is -0.01 or greater: RRIRKRPPRLPRPRPRPVGKPRP
no

Hi team, for RRIRVRPPRLPRPRPRPCSDPRP , is the recorded shrunken log2 fold change at or above -0.01?
no

Does the reported shrunken log2 fold change for RRIRYRPPRLPRPRPRPYSMPRP fall at or above the -0.01 mark?
no

Item RRIRSRPPRLPRPRPRPDEDPRP with shrunken log2 fold change of -0.01 or above?
yes

Say whether RRIRRRPPRLPRPRPRPMSIPRP shows shrunken log2 fold change of -0.01 or more.
no

Has RRIRTRPPRLPRPRPRPKSCPRP a recorded shrunken log2 fold change greater than or equal to -0.01?
no

Test whether the sequence RRIRDRPPRLPRPRPRPWMGPRP records shrunken log2 fold change of -0.01 or higher.
no

Is shrunken log2 fold change for RRIRCRPPRLPRPRPRPMHMPRP at or above -0.01?
no

Does the sequence RRIRERPPRLPRPRPRPPDRPRP have recorded shrunken log2 fold change that is -0.01 or more?
yes

API: above_or_equal(metric=shrunken log2 fold change, cutoff=-0.01) for item RRIRMRPPRLPRPRPRPMCEPRP
yes
